Target: Aβ1-42 fibers (human)
Test: SPR
Known Kd of a selection of binders
Dear colleague, please return just the value in nM, with no unit written.

[[record]]
binder = "MS-R 7.11.H1 x 7.11.L1 IgG1 (antibody, V domains shown) VH: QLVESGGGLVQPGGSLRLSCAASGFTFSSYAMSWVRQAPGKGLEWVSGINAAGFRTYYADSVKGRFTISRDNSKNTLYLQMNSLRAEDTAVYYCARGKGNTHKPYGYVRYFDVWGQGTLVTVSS VL: DIVLTQSPATLSLSPGERATLSCRASQRILRIYLAWYQQKPGQAPRLLIYGASSRATGVPARFSGSGSGTDFTLTISSLEPEDFATYYCQQVYSPPHTFGQGTKVEIKR"
experimental_endpoint = "Kd"
recorded_number = 0.13

[[record]]
binder = "MS-R 7.9.H7 IgG1 (antibody, V domains shown) VH: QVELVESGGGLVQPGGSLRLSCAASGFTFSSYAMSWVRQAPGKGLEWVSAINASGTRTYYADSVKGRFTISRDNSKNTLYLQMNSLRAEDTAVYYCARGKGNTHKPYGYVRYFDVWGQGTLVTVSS VL: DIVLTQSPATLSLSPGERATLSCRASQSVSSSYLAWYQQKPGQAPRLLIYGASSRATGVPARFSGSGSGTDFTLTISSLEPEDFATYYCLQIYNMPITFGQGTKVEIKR"
experimental_endpoint = "Kd"
recorded_number = 0.24

[[record]]
binder = "MS-R 7.4.H2 x 7.2.L1 IgG1 (antibody, V domains shown) VH: QLVESGGGLVQPGGSLRLSCAASGFTFSSYAMSWVRQAPGKGLEWVSAINYNGARIYYADSVKGRFTISRDNSKNTLYLQMNSLRAEDTAVYYCARGKGNTHKPYGYVRYFDVWGQGTLVTVSS VL: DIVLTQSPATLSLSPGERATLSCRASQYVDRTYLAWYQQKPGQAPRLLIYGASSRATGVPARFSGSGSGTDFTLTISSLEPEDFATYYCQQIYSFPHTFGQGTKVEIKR"
experimental_endpoint = "Kd"
recorded_number = 0.12

[[record]]
binder = "MS-R 7.11.H1 x 7.2.L1 IgG1 (antibody, V domains shown) VH: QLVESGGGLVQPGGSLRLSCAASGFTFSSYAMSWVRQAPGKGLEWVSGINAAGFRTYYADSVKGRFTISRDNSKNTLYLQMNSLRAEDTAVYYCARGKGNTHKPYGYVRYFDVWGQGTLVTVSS VL: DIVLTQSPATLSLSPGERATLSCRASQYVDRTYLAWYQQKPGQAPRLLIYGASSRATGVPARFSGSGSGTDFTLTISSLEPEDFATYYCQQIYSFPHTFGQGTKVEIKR"
experimental_endpoint = "Kd"
recorded_number = 0.15

[[record]]
binder = "MS-R 7.9.H2 IgG1 (antibody, V domains shown) VH: QLVESGGGLVQPGGSLRLSCAASGFTFSSYAMSWVRQAPGKGLEWVSAINADGNRKYYADSVKGRFTISRDNSKNTLYLQMNSLRAEDTAVYYCARGKGNTHKPYGYVRYFDVWGQGTLVTVSS VL: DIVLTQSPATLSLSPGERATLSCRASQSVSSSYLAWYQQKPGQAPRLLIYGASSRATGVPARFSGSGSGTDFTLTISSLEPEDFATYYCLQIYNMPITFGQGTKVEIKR"
experimental_endpoint = "Kd"
recorded_number = 0.11


(Q) Reported Kd for MS-R 3.6.H5 x 3.6.L2 IgG1 (antibody, V domains shown) VH: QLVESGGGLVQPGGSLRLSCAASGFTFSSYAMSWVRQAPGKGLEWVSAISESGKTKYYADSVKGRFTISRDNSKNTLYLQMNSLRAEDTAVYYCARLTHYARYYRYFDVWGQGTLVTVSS VL: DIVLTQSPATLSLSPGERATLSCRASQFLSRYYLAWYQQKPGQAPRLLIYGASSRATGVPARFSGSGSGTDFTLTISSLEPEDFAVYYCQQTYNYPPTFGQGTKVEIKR : what is it?
(A) 0.2
